nonsense suppression for assorted variants
B1: tRNA (parent)
chain: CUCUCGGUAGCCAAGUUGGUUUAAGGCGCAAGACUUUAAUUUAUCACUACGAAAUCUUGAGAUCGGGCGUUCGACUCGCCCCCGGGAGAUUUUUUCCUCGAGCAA

# Variants of: B1
# assay: nonsense suppression (GFP-seq) (ratio to wild type); higher = more function; SUP4oc tRNA, yeast GFP reporter sort-seq
Variants at the floor of the assay were thinned out.
quantity-name: nonsense suppression

variant-key	quantity-name	readout-relation	measured-result
A60G C64G	nonsense suppression	≤	0.026
A9U G61A C72A	nonsense suppression	≤	0.026
G7A U70A A89C	nonsense suppression	≤	0.026
C27A C29A U71C C79U	nonsense suppression	≤	0.026
A14U G15C A60C C79U	nonsense suppression	≤	0.026
U20G G59C C64A G85U	nonsense suppression	≤	0.026
C1U G15C G26C	nonsense suppression	≤	0.026
C77U C83A	nonsense suppression	≤	0.026
G19U A23U C34A U63G	nonsense suppression	≤	0.026
A30U U35G G65U	nonsense suppression	≤	0.026
G66U C68A G86A	nonsense suppression	≤	0.026
A24U A54U	nonsense suppression	=	0.208
U16C G32A G59A C82G	nonsense suppression	≤	0.026
G73A	nonsense suppression	=	1.12
A23G A60G	nonsense suppression	=	0.0474
U20A A54U U76C	nonsense suppression	=	0.24
U20G G26C	nonsense suppression	≤	0.026
A31G G61A	nonsense suppression	=	0.8
A30U G67A G73U A74G C81A	nonsense suppression	≤	0.026
U2G C12A	nonsense suppression	≤	0.026
G10A U21G G67C C79A	nonsense suppression	≤	0.026
A9C G18A A31C A54C A62U G69C G88C	nonsense suppression	≤	0.026
A31G U63A	nonsense suppression	=	0.684
A14C U21G A23C G69A U70A	nonsense suppression	≤	0.026
G73C U76A	nonsense suppression	≤	0.026
A31G G73A	nonsense suppression	=	0.366
A54C U58A	nonsense suppression	=	0.135
U20G U21C	nonsense suppression	=	0.761
U16C U63C C79U	nonsense suppression	=	0.0784
G7A C11U U35A A54C C64U C83G	nonsense suppression	≤	0.026
C12U U21A A31G	nonsense suppression	=	0.214
U21C G32U U58C	nonsense suppression	≤	0.026
U4C G15A U21A	nonsense suppression	=	0.214
U20G G85U	nonsense suppression	=	0.81
G61U G67U	nonsense suppression	≤	0.026
U20C A54G	nonsense suppression	=	0.052
A54C U76C	nonsense suppression	=	0.232
C3A U58G U76A	nonsense suppression	≤	0.026
C5A U8C	nonsense suppression	≤	0.026
G28C G84C	nonsense suppression	=	0.239
C27U A62U	nonsense suppression	=	0.0346
U21G U55C	nonsense suppression	=	0.208
U8A U16G	nonsense suppression	=	0.0647
A9C G69A	nonsense suppression	≤	0.026
G10U G85C	nonsense suppression	≤	0.026
C3U A30G C34U	nonsense suppression	≤	0.026
U17A A33C U76C C79A C80U	nonsense suppression	≤	0.026
U8G C56U	nonsense suppression	≤	0.026
G15U U70A G85U	nonsense suppression	≤	0.026
A60G G85C	nonsense suppression	=	0.119
G7U G65A U76A	nonsense suppression	≤	0.026
A33G U63A	nonsense suppression	=	0.031
C3U C12U	nonsense suppression	=	0.039
U70G C75U	nonsense suppression	≤	0.026
A9G A24G	nonsense suppression	=	0.0517
U21C A23C U71G G78A	nonsense suppression	≤	0.026
G10A A31C	nonsense suppression	≤	0.026
C29U U76C	nonsense suppression	=	0.772
U2C A13U C72A	nonsense suppression	≤	0.026
A13C U57C	nonsense suppression	=	0.0326
A13U U16A	nonsense suppression	=	0.837
A14U G26A U57A	nonsense suppression	≤	0.026
A30U A60U C68U	nonsense suppression	=	0.0354
A13U A74U	nonsense suppression	=	0.051
C12U G61U	nonsense suppression	=	0.248
A9U C11G C68A	nonsense suppression	≤	0.026
A24G C75A	nonsense suppression	=	0.24
A13U G78C	nonsense suppression	=	0.0621
U4C A13G	nonsense suppression	=	0.774
U2C U16G	nonsense suppression	=	0.168
C5G A13U G19U U35G A87G	nonsense suppression	≤	0.026
G15C G69U G73C	nonsense suppression	≤	0.026
A9G A60C	nonsense suppression	≤	0.026
C11U A24G G26C U71A	nonsense suppression	≤	0.026
C81U A87G	nonsense suppression	=	0.239
C12U G85C	nonsense suppression	=	0.111
U22C C29U G61A	nonsense suppression	=	0.386
G10A A54C	nonsense suppression	=	0.0309
